Settings: human gut metagenome, 24 h, 2 µM; note: call rule not given here
assayReadout: Bacterial Biotransformation

Challenge: Would you kindly share the measured Bacterial Biotransformation for C=C[C@H]1CN2CC[C@H]1C[C@H]2[C@H](O)c1ccnc2ccc(OC)cc12.C=C[C@H]1CN2CC[C@H]1C[C@H]2[C@H](O)c1ccnc2ccc(OC)cc12.O.O.O=S(=O)(O)O [QUININE SULFATE] ?
Response given: Compound metabolized

Challenge: Any idea what its Bacterial Biotransformation is? The compound is CN(C)C(=O)Oc1cccc([N+](C)(C)C)c1.[Br-] [NEOSTIGMINE BROMIDE]
Response given: Compound NOT metabolized

Challenge: For the compound shown here, COc1ccc([C@@H]2Sc3ccccc3N(CCN(C)C)C(=O)[C@@H]2OC(C)=O)cc1 [DILTIAZEM] , give the reported Bacterial Biotransformation.
Response given: Compound metabolized

Challenge: Return reported Bacterial Biotransformation; argument: C#C[C@]1(OC(C)=O)CC[C@H]2[C@@H]3CCC4=C/C(=N/O)CC[C@@H]4[C@H]3CC[C@@]21CC [NORGESTIMATE]
Response given: Compound metabolized

Challenge: # lookup: Bacterial Biotransformation of COc1cc(NC(C)CCCN)c2ncccc2c1.O=P(O)(O)O.O=P(O)(O)O (stereo unspecified) [PRIMAQUINE PHOSPHATE]
Response given: Compound NOT metabolized

New cases:
Challenge: Endpoint output: Bacterial Biotransformation of CN[C@H]1CC[C@@H](c2ccc(Cl)c(Cl)c2)c2ccccc21 [SERTRALINE] . Value?
Response given: Compound NOT metabolized

Challenge: Endpoint output: Bacterial Biotransformation of CCN(CC)CCOC(=O)C1(C2CCCCC2)CCCCC1 [DICYCLOMINE] . Value?
Response given: Compound metabolized

Challenge: Data request, read-out Bacterial Biotransformation, for CCOC(=O)[C@H](CCc1ccccc1)N[C@@H](C)C(=O)N1Cc2ccccc2C[C@H]1C(=O)O
Response given: Compound metabolized

Challenge: # Bacterial Biotransformation lookup, item CN(C)CCc1c[nH]c2ccc(CS(=O)(=O)N3CCCC3)cc12 [ALMOTRIPTAN]
Response given: Compound metabolized

Challenge: Recorded Bacterial Biotransformation of COc1cc(C(=O)NCc2ccc(OCCN(C)C)cc2)cc(OC)c1OC [TRIMETHOBENZAMIDE] , please.
Response given: Compound NOT metabolized

Challenge: State the recorded Bacterial Biotransformation for this entry: CCN(CC)C(=O)C1(c2ccccc2)CC1CN (stereo unspecified)
Response given: Compound NOT metabolized

Challenge: Consider the compound shown here: CCN1CCCC1CNC(=O)c1cc(S(=O)(=O)CC)c(N)cc1OC (stereo unspecified) [AMISULPRIDE] What is its recorded Bacterial Biotransformation?
Response given: Compound metabolized

Challenge: What value of Bacterial Biotransformation has been reported for the following compound? COc1ccc(CN2CCNCC2)c(OC)c1OC.Cl.Cl [TRIMETAZIDINE DIHYDROCHLORIDE]
Response given: Compound NOT metabolized

Challenge: Bench note: what Bacterial Biotransformation did CCOc1cc(CC(=O)N[C@@H](CC(C)C)c2ccccc2N2CCCCC2)ccc1C(=O)O [REPAGLINIDE] show?
Response given: Compound metabolized

Challenge: Bacterial Biotransformation for COc1ccnc(C[S+]([O-])c2nc3ccc(OC(F)F)cc3[nH]2)c1OC (stereo unspecified) [PANTOPRAZOLE] ?
Response given: Compound metabolized

Challenge: Reported Bacterial Biotransformation for OC(c1cc(C(F)(F)F)nc2c(C(F)(F)F)cccc12)C1CCCCN1 (stereo unspecified) [MEFLOQUINE] : what is it?
Response given: Compound metabolized
